Sourced from paper PMC12136788

assayedSystem: T1, UNK ZnF1-3 (human, UniProt Q9C0B0 31-174)
T1 sequence: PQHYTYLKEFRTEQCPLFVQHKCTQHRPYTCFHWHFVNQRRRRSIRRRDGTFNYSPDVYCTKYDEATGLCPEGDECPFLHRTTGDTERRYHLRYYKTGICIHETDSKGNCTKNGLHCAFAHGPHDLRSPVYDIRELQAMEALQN
protocolNotes: nsRBNS (natural sequence RNA bind-n-seq); RBNS binding buffer (assumed for nsRBNS): 25 mM Tris pH 7.5, 150 mM KCl, 3 mM MgCl2, 0.01% Triton X-100, 500 ug/ml BSA, 20 U/ml SUPERase-In, 4 C; UNK is unkempt and MSI1 is Musashi-1; names of the RNAs are library labels; protein concentration not given here; high values mean tight binding
Over roughly 24,000 sequences, “enrichment r” has its median near 0.99; the highest 2% begin near 3.7. The sample holds the highest values, similar sequences and a random draw of the others, so the mix is not that of the screen.
Would you mind telling me the reported binding signal of each entry?
Provide the reading as a plain figure in enrichment R.

*Q* Report binding signal, nothing else, for this binder: chr11:21040623:21040624:+_ENSMUSG00000020134_ENSMUST00000093290|mus_mus|motif|central (ssRNA) RNA: GGGAGUUCUACAGUCCGACGAUCAAUGUGCACGGUGCUAGGCUUCACCCCAUUUGCCUUAGGUCUUUUAAACAAAGCAAACCGGCUUUUCCUCCUUCCUCUAUCACCGUUUGGGAGAGAUCCAUUAUAUCCUAAGACAAUGAGCAACAGAGGAUUGAGCAUCA
*A* 0.75

*Q* Please give the documented binding signal of 66332798_66333947_12362_CDS_ENSMUSG00000038664_ENSMUST00000042824|mouse|control|control (ssRNA) RNA: GGGAGUUCUACAGUCCGACGAUCUUCACCACUUUCUGUCAAGGCCAUUGAGUGCCCAUCUGAGCCACAGGAAGUCACCAGCUGGGUCACCACAAAACCUUGUAGGGCUGAAAUCACAGUCAGCACAUGAAGGUCGUCUGAAUUCAACAGAGGAUUGAGCAUCA
*A* 0.824

*Q* Entry chr15:43699750:43699751:-_ENSG00000067369_ENST00000382044|hu_hu|motif|central (ssRNA) RNA: GGGAGUUCUACAGUCCGACGAUCACACUUCAGCACCGAGGCUGGGCAUGAGGGGUCCGUCACCACCACAUCAAAUACCCCGGAAGCAAUAUCUUUGUUAUGGGCACUUGAAUGGUGCUGCUUCACAGAGGCUGCACCACCAGUCAACAGAGGAUUGAGCAUCA needs its binding signal filled in; supply it.
*A* 0.852

*Q* Hello, please tell me recorded binding signal for this one: chr5:135513207:135513208:+_ENSG00000113658_ENST00000545279|hu_hu|FALSE|FALSE (ssRNA) RNA: GGGAGUUCUACAGUCCGACGAUCAAUGUAAGCUCACAGUAUCUGUACUCAAAGUUUCUCUAAAAUUAAAACAAGUCCACUAACAAUAUAAUUGAAAAGAAUACUUCUGCAUUAUGAAACAGAAGAUAUGGGGUUCAGAGGGGACAACAGAGGAUUGAGCAUCA
*A* 1.67

*Q* Using the record for chr6:41757443:41757444:+_ENSG00000214736_ENST00000398881|hu_mus|hu_hu_hu_mus_False|1_38 (ssRNA) RNA: GGGAGUUCUACAGUCCGACGAUCGAACCGUGCAGAGGCAACAUCUCAGCCGACACUGGGGGAUGGGGGGGCAGUGGGGGGGGGUUCAGGCAAGGAGAAGAAAAGUGCUUCAGCUGCCACUCAGGUAGGAUCUUGUGGGGCACACAACAGAGGAUUGAGCAUCA , state its measured binding signal.
*A* 4.72

*Q* Identify measured binding signal associated with chr6:41757443:41757444:+_ENSG00000214736_ENST00000398881|hu_mus|hu_hu_hu_mus_False|18_28 (ssRNA) RNA: GGGAGUUCUACAGUCCGACGAUCGAACCGUGCAGAGGCAACAUCUCAGCCGACACUGGGGGAUGGGGGGGCAGUGGGGGGGGGUUCAGGCAAGGAGAGGGAGUCAACCCAUCUGAAUCAAACUUCAGGAUCUUGUGGUCACAGCAACAGAGGAUUGAGCAUCA
*A* 5.1

*Q* Given chr10:127876205:127876206:+_ENSMUSG00000025373_ENSMUST00000096386|mus_mus|FALSE|FALSE (ssRNA) RNA: GGGAGUUCUACAGUCCGACGAUCGGGGCCACCGAGGCAACACAGACACCCUCUUGAGGCAGUGCCGUUCUGGAUCAGCAGAGCCAGACAGCAGCUUCCUGCUGAGUGUACGAACACCAGUGCUCUCACGCCCACCCCUUCCUUCAACAGAGGAUUGAGCAUCA , respond with its binding signal.
*A* 1.13
